Test system: S180 tumor
protocol_notes: Biodistribution in tumor-bearing mice
Format: in vivo
assay_conditions: 120 min, i.v., mice bearing S180 tumor, mean ± SD
Protocol: The mice bearing S180 tumors were injected intravenously via the tail vein respectively with the solutions (0.1 mL, 370 kBq) containing the radioactive drugs of Examples 1-4. […] After dissection, the heart, liver, lung, kidney, spleen, bone, muscle, small intestine, blood and tumors were harvested, and measured for radioactivity with the γ-counter. The biodistribution individual organs or tissues was expressed as the percentage of the injected dose per gram of organ or tissue (% ID/g).
reported_metric: Small intestine (% ID/g)
Answers are plain numbers, in % ID/g.

As a guide, the following entries are already answered.
O=C(NC1C(O)OC(CO)C(O)C1O)c1ccc(CC[N+]#[C][99Tc+]([C]#[N+]CCc2ccc(C(=O)NC3C(O)OC(CO)C(O)C3O)cc2)([C]#[N+]CCc2ccc(C(=O)NC3C(O)OC(CO)C(O)C3O)cc2)([C]#[N+]CCc2ccc(C(=O)NC3C(O)OC(CO)C(O)C3O)cc2)([C]#[N+]CCc2ccc(C(=O)NC3C(O)OC(CO)C(O)C3O)cc2)[C]#[N+]CCc2ccc(C(=O)NC3C(O)OC(CO)C(O)C3O)cc2)cc1 (stereo not shown) [^99mTc-4-CNPeDG] | 0.31
O=C(Cc1ccc(C[N+]#[C][99Tc+]([C]#[N+]Cc2ccc(CC(=O)NC3C(O)OC(CO)C(O)C3O)cc2)([C]#[N+]Cc2ccc(CC(=O)NC3C(O)OC(CO)C(O)C3O)cc2)([C]#[N+]Cc2ccc(CC(=O)NC3C(O)OC(CO)C(O)C3O)cc2)([C]#[N+]Cc2ccc(CC(=O)NC3C(O)OC(CO)C(O)C3O)cc2)[C]#[N+]Cc2ccc(CC(=O)NC3C(O)OC(CO)C(O)C3O)cc2)cc1)NC1C(O)OC(CO)C(O)C1O (stereo not shown) [^99mTc-4-CNMBDG] | 1.65
O=C(NC1C(O)OC(CO)C(O)C1O)c1cccc(C[N+]#[C][99Tc+]([C]#[N+]Cc2cccc(C(=O)NC3C(O)OC(CO)C(O)C3O)c2)([C]#[N+]Cc2cccc(C(=O)NC3C(O)OC(CO)C(O)C3O)c2)([C]#[N+]Cc2cccc(C(=O)NC3C(O)OC(CO)C(O)C3O)c2)([C]#[N+]Cc2cccc(C(=O)NC3C(O)OC(CO)C(O)C3O)c2)[C]#[N+]Cc2cccc(C(=O)NC3C(O)OC(CO)C(O)C3O)c2)c1 (stereo not shown) [^99mTc-3-CNPEDG] | 0.43

Enquiry: I have this compound here, O=C(NC1C(O)OC(CO)C(O)C1O)c1cccc([N+]#[C][99Tc+]([C]#[N+]c2cccc(C(=O)NC3C(O)OC(CO)C(O)C3O)c2)([C]#[N+]c2cccc(C(=O)NC3C(O)OC(CO)C(O)C3O)c2)([C]#[N+]c2cccc(C(=O)NC3C(O)OC(CO)C(O)C3O)c2)([C]#[N+]c2cccc(C(=O)NC3C(O)OC(CO)C(O)C3O)c2)[C]#[N+]c2cccc(C(=O)NC3C(O)OC(CO)C(O)C3O)c2)c1 (stereo not shown) [^99mTc-3-CNBzDG] , and I need its recorded Small intestine.
Return: 0.70

====

Test system: S180 tumor
protocol_notes: Biodistribution in tumor-bearing mice
Type: in vivo
assay_conditions: 120 min, i.v., mice bearing S180 tumor, mean ± SD
reported_metric: Muscle (% ID/g)
Give bare numbers, in % ID/g.

O=C(NC1C(O)OC(CO)C(O)C1O)c1ccc(C[N+]#[C][99Tc+]([C]#[N+]Cc2ccc(C(=O)NC3C(O)OC(CO)C(O)C3O)cc2)([C]#[N+]Cc2ccc(C(=O)NC3C(O)OC(CO)C(O)C3O)cc2)([C]#[N+]Cc2ccc(C(=O)NC3C(O)OC(CO)C(O)C3O)cc2)([C]#[N+]Cc2ccc(C(=O)NC3C(O)OC(CO)C(O)C3O)cc2)[C]#[N+]Cc2ccc(C(=O)NC3C(O)OC(CO)C(O)C3O)cc2)cc1 (centres unmarked) [^99mTc-CNPEDG, reference compound] | 0.82

--- query ---
Enquiry: Recorded Muscle for O=C(NC1C(O)OC(CO)C(O)C1O)c1cccc([N+]#[C][99Tc+]([C]#[N+]c2cccc(C(=O)NC3C(O)OC(CO)C(O)C3O)c2)([C]#[N+]c2cccc(C(=O)NC3C(O)OC(CO)C(O)C3O)c2)([C]#[N+]c2cccc(C(=O)NC3C(O)OC(CO)C(O)C3O)c2)([C]#[N+]c2cccc(C(=O)NC3C(O)OC(CO)C(O)C3O)c2)[C]#[N+]c2cccc(C(=O)NC3C(O)OC(CO)C(O)C3O)c2)c1 (centres unmarked) [^99mTc-3-CNBzDG] , please?
Return: 0.24

====

protocol_notes: Determination of lipid-water partition coefficient (n-octanol/PBS pH 7.4)
Type: physicochemical
assay_conditions: n-octanol/phosphate buffer solution (PBS), n-octanol / PBS 0.025 M
reported_metric: logP

O=C(NC1C(O)OC(CO)C(O)C1O)c1cccc(C[N+]#[C][99Tc+]([C]#[N+]Cc2cccc(C(=O)NC3C(O)OC(CO)C(O)C3O)c2)([C]#[N+]Cc2cccc(C(=O)NC3C(O)OC(CO)C(O)C3O)c2)([C]#[N+]Cc2cccc(C(=O)NC3C(O)OC(CO)C(O)C3O)c2)([C]#[N+]Cc2cccc(C(=O)NC3C(O)OC(CO)C(O)C3O)c2)[C]#[N+]Cc2cccc(C(=O)NC3C(O)OC(CO)C(O)C3O)c2)c1 (stereo not drawn) [^99mTc-3-CNPEDG] | -3.39
O=C(Cc1ccc(C[N+]#[C][99Tc+]([C]#[N+]Cc2ccc(CC(=O)NC3C(O)OC(CO)C(O)C3O)cc2)([C]#[N+]Cc2ccc(CC(=O)NC3C(O)OC(CO)C(O)C3O)cc2)([C]#[N+]Cc2ccc(CC(=O)NC3C(O)OC(CO)C(O)C3O)cc2)([C]#[N+]Cc2ccc(CC(=O)NC3C(O)OC(CO)C(O)C3O)cc2)[C]#[N+]Cc2ccc(CC(=O)NC3C(O)OC(CO)C(O)C3O)cc2)cc1)NC1C(O)OC(CO)C(O)C1O (stereo not drawn) [^99mTc-4-CNMBDG] | -3.1

Enquiry: For the compound shown here, O=C(NC1C(O)OC(CO)C(O)C1O)c1cccc([N+]#[C][99Tc+]([C]#[N+]c2cccc(C(=O)NC3C(O)OC(CO)C(O)C3O)c2)([C]#[N+]c2cccc(C(=O)NC3C(O)OC(CO)C(O)C3O)c2)([C]#[N+]c2cccc(C(=O)NC3C(O)OC(CO)C(O)C3O)c2)([C]#[N+]c2cccc(C(=O)NC3C(O)OC(CO)C(O)C3O)c2)[C]#[N+]c2cccc(C(=O)NC3C(O)OC(CO)C(O)C3O)c2)c1 (stereo not drawn) [^99mTc-3-CNBzDG] , give the reported logP.
Return: -3.74

====

System: S180 tumor
protocol_notes: Biodistribution in tumor-bearing mice
Format: in vivo
assay_conditions: 30 min, i.v., mice bearing S180 tumor, n=5, mean ± SD
For each of the molecules below, state its Tumor/blood ratio.
Numbers only.

O=C(NC1C(O)OC(CO)C(O)C1O)c1ccc(CC[N+]#[C][99Tc+]([C]#[N+]CCc2ccc(C(=O)NC3C(O)OC(CO)C(O)C3O)cc2)([C]#[N+]CCc2ccc(C(=O)NC3C(O)OC(CO)C(O)C3O)cc2)([C]#[N+]CCc2ccc(C(=O)NC3C(O)OC(CO)C(O)C3O)cc2)([C]#[N+]CCc2ccc(C(=O)NC3C(O)OC(CO)C(O)C3O)cc2)[C]#[N+]CCc2ccc(C(=O)NC3C(O)OC(CO)C(O)C3O)cc2)cc1 (stereo not shown) [^99mTc-4-CNPeDG] | 1.16
O=C(NC1C(O)OC(CO)C(O)C1O)c1cccc(C[N+]#[C][99Tc+]([C]#[N+]Cc2cccc(C(=O)NC3C(O)OC(CO)C(O)C3O)c2)([C]#[N+]Cc2cccc(C(=O)NC3C(O)OC(CO)C(O)C3O)c2)([C]#[N+]Cc2cccc(C(=O)NC3C(O)OC(CO)C(O)C3O)c2)([C]#[N+]Cc2cccc(C(=O)NC3C(O)OC(CO)C(O)C3O)c2)[C]#[N+]Cc2cccc(C(=O)NC3C(O)OC(CO)C(O)C3O)c2)c1 (stereo not shown) [^99mTc-3-CNPEDG] | 0.97
O=C(NC1C(O)OC(CO)C(O)C1O)c1cccc([N+]#[C][99Tc+]([C]#[N+]c2cccc(C(=O)NC3C(O)OC(CO)C(O)C3O)c2)([C]#[N+]c2cccc(C(=O)NC3C(O)OC(CO)C(O)C3O)c2)([C]#[N+]c2cccc(C(=O)NC3C(O)OC(CO)C(O)C3O)c2)([C]#[N+]c2cccc(C(=O)NC3C(O)OC(CO)C(O)C3O)c2)[C]#[N+]c2cccc(C(=O)NC3C(O)OC(CO)C(O)C3O)c2)c1 (stereo not shown) [^99mTc-3-CNBzDG] | 1.04

--- query ---
Enquiry: Please tell me: Tumor/blood ratio of O=C(Cc1ccc(C[N+]#[C][99Tc+]([C]#[N+]Cc2ccc(CC(=O)NC3C(O)OC(CO)C(O)C3O)cc2)([C]#[N+]Cc2ccc(CC(=O)NC3C(O)OC(CO)C(O)C3O)cc2)([C]#[N+]Cc2ccc(CC(=O)NC3C(O)OC(CO)C(O)C3O)cc2)([C]#[N+]Cc2ccc(CC(=O)NC3C(O)OC(CO)C(O)C3O)cc2)[C]#[N+]Cc2ccc(CC(=O)NC3C(O)OC(CO)C(O)C3O)cc2)cc1)NC1C(O)OC(CO)C(O)C1O (stereo not shown) [^99mTc-4-CNMBDG] , system S180 tumor?
Return: 1.57
